tested on: K4 kissing-loop RNA reporter; assay: apparent KD of K4 kissing-loop reporter; higher = weaker reporter binding; conditions: Eterna round: R107; input ligand: none
Catalogue of apparent KD of K4 kissing-loop reporter readings, one per entry.
API: value field is a number in nM; no unit string.

Tell me the measured apparent KD of K4 kissing-loop reporter of UACUAUAGUGAUGUUAUAGAUAAACCAGAUACCAGUGUGACAUAACACCCUUGGCAGCUGAUAAGGGAACAUAUGAAAACAUAUG [AstroSSTHeAED5.17] , please.
132

Tell me the measured apparent KD of K4 kissing-loop reporter of GCGGCGGGCCAAGGAUAUAUUUUGGAGUGAUGUUGUUCAUUUAUUUGAGCUAGUGAUGUUGGUCGAAUAGAAGGUGGCCCGCCGC [whbob_Ex_FMNB__2th219] , please.
56.9

Tell me the measured apparent KD of K4 kissing-loop reporter of GUUAUGGACCUGGAUACCAGCUGGUACAAGGUCGGUCUACAUGAGUGAUGUUCAUGUGUCAGCCCUUGGCAGCCAGCAACCGGCA [KL-XTheo-B10] , please.
101

###

Catalogue of apparent KD of K4 kissing-loop reporter readings, one per entry.
system: K4 kissing-loop RNA reporter; test: apparent KD of K4 kissing-loop reporter; higher = weaker reporter binding; details: Eterna round: R107; input ligand: arginine 13.2 mM;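 also: bound reporter read as fluorescence of individual clusters on recovered sequencing chips by microscopy, with normalized cluster intensities fitted with a binding model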
API: value field is a number in nM; no unit string.

# INPUT SEQUENCE, MEASUREMENT TARGET, READING UNIT, apparent KD of K4 kissing-loop reporter
rows = [
    ("UUAGUCAGAUUAUUAUUAGCCUGCGAGACUAAGGAUAUCCGAAUUCGGAGAAGGUAGUGAUGUUACUUUGGCAGGCACUGACAUU [AK8 Exc FMN A]", "K4 kissing-loop RNA reporter", "nM", 611),
]

Tell me the measured apparent KD of K4 kissing-loop reporter of GUACGGCGGGCGGCCGCCACUGGUAUACGAGUGAUGUUCGGAUAUACGUGAUGUAUGGUAAUUAACAGGACCGGGUCAGGGCCGG [whbob_SS_Tryp_B_t23] , please.
158

Tell me the measured apparent KD of K4 kissing-loop reporter of GCCGUACGCAUGGAUACCAGAUGGCACUAUUUUCUCCCAGAGUGAUGUUCUGGCCUGCCUAUCCCUUGGCAGCCAUGCGUACGGC , please.
616

Tell me the measured apparent KD of K4 kissing-loop reporter of UGUCAUUGGUCUGAUACCAGUACCCUUGGCAGCCAAGGAGUGAUGUUCCAAGGAUACCAGUACCCUUGGCAGCAGACCGAUGACU [TheoBS 25 #DoubleAptamer #SwitchBubble] , please.
802

Tell me the measured apparent KD of K4 kissing-loop reporter of GGCACGGUGACGCGGCUGCCGUGCGCUUGGGAGGAUAUGUUUCGUGACAGAAGGCCCAGUGAUGUUGGGUCUGUUCAAAAGGACU [Edmatianri] , please.
104

Tell me the measured apparent KD of K4 kissing-loop reporter of AAUAAGCGCCGAAGGAGCGGCCUCCGAGUGAUGUUCGGUGAGAUGCCAGUGAUGUUGGCCGGCCAGGUAGGUCGCGGCAAAGCUU [Same State Arginine B GF 29] , please.
140

###

tested on: MS2 coat protein; assay: apparent KD of MS2 coat protein; designed switch direction (-1 OFF switch, 1 ON switch): -1; higher = weaker reporter binding; settings: input ligand: microRNA oligo, concentration not stated
Decision: apparent KD of MS2 coat protein >= 30 nM yields label 1, all other cases yield label 0.

Item ACAUGACAGCUAGGAUAUAAAUGACAUGAGGAUCACCCAUGUUGUCCCAUGUUGACGAUCACCGAUUAGAAGGAGCCACCCAUG [Ex NG2 #1] (Eterna round: R96, puzzle: Exclusion NG 2) with apparent KD of MS2 coat protein of 30 nM or above?
label 1

Item UCAAAAUAGUCAGGAUAUGCAGAUUCAGCGUCCGCAGAAGGGACAGUGGGCUGGUCCGACACAUGAGGAUCACCCAUGUAAAAG [Teerreanor] (Eterna round: R96, puzzle: Exclusion NG 1) with apparent KD of MS2 coat protein of 30 nM or above?
label 1

Item UUAAUGUGAGGAUAUCAGGUGUGCUAGCGUACUGGUACAUCUGAGAAGGCACAUGAGGAUCACCCAUGUUCCUU [JL-ex4-3.27 Brourd mod] (Eterna round: R96, puzzle: Exclusion 4) with apparent KD of MS2 coat protein of 30 nM or above?
label 0

Data origin, for the record: the supplement of paper PMC9170038
